test system: rice (Oryza sativa); assay: Test B flood test; format: in vivo; details: Rate 62 g/ha, Postemergence (flood test)
Exercise: for every item that follows, state its recorded Plant response rating, Rice.

Value sought for every listed compound: Plant response rating, Rice.
1. CCc1cnc(-c2ccc(C(F)(F)F)cc2)nc1Cc1cccc(OC(F)(F)F)c1 [Compound 41]
2. Cc1cnc(-c2ccc(C(F)(F)F)cc2)nc1Cn1cnc(C(F)(F)F)c1 [Compound 10]

5
0

----------
system: wild oat (Avena fatua); assay: Test B pre-/postemergence; type: in vivo; settings: Rate 125 g/ha, Preemergence
Exercise: for every item that follows, state its recorded Wild oats plant response rating.
Answers are plain numbers.

# annotated cases, reported Wild oats plant response rating shown
Cc1cnc(-c2ccc(C(F)(F)F)cc2)nc1C(Cl)c1cccc(C(F)(F)F)c1 (racemic) [Compound 21]: 5
Cc1cnc(-c2ccc(C(F)(F)F)cc2)nc1Cn1ccc(C(F)(F)F)n1 [compound 9]: 8
COC(c1cccc(C(F)(F)F)c1)c1nc(-c2ccc(C(F)(F)F)cc2)ncc1C (racemic) [Compound 20]: 2
Cc1cnc(-c2ccc(C(F)(F)F)cc2)nc1C(C#N)c1cccc(C(F)(F)F)c1 (racemic) [Compound 17]: 5
COc1cnc(-c2ccc(C(F)(F)F)cc2)nc1Cc1cccc(C(F)(F)F)c1 [Compound 23]: 8
Cc1cnc(-c2ccc(C(F)(F)F)cc2)nc1Cn1ccc(C(F)(F)C(F)(F)F)n1 [Compound 14]: 0

// moving on: another record for Wild oats plant response rating
// Wild oats plant response rating value for Cc1cnc(-c2ccc(Cl)cc2)nc1Cn1ccc(C(F)(F)F)n1 [Compound 6] : 0

----------
tested on: cotton (Gossypium hirsutum); assay: Test C; type: in vivo; conditions: PREEMERGENCE, Rate 140 g/ha
readout_name: Plant response rating, Cotton
Numbers only.

# annotated cases, reported Plant response rating, Cotton shown
Cc1cnc(-c2ccc(C(F)(F)F)cc2)nc1Cn1ccc(C(F)(F)F)n1: 50
Cc1cnc(-c2ccc(C(F)(F)F)cc2)nc1C(Cl)c1cccc(C(F)(F)F)c1 (racemic): 20
Cc1cnc(-n2ccc(C(F)(F)F)n2)nc1Cc1cccc(OC(F)(F)F)c1: 60
Cc1cnc(-n2ccc(C(F)(F)F)n2)nc1C(=O)c1cccc(OC(F)(F)F)c1: 0
Cc1cnc(-c2ccc(C(F)(F)F)cc2)nc1Cc1cccc(OC(F)(F)F)c1: 10

// Plant response rating, Cotton value for Cc1cnc(-c2ccc(C(F)(F)F)cc2)nc1Cc1cccc(C(F)(F)F)c1 : 100

----------
test system: momingglory (Ipomoea hederacea); assay: Test B pre-/postemergence; format: in vivo; design: key: 0 is no effect; 10 is complete control; details: Rate 62 g/ha, Preemergence
Exercise: for every item that follows, state its recorded Morningglory plant response rating.

# annotated cases, reported Morningglory plant response rating shown
Cc1cnc(-c2ccc(C#N)cc2)nc1Cc1cccc(C#N)c1: 0
Cc1cnc(-c2ccc(C(F)(F)F)cc2)nc1C(C)c1cccc(C(F)(F)F)c1 (racemic): 0
CCc1cnc(-c2ccc(C(F)(F)F)cc2)nc1Cc1cccc(OC(F)(F)F)c1: 1
Cc1cnc(-c2ccc(F)cc2F)nc1Cc1cccc(C#N)c1: 0
Cc1cnc(-n2cnc(C(F)(F)F)n2)nc1Cc1cccc(C(F)(F)F)c1: 9

Value sought for every listed compound: Morningglory plant response rating.
1. Cc1cnc(-c2ccc(C(F)(F)F)cc2)nc1Cn1cc(I)cn1
2. CCc1cnc(-n2cnc(C(F)(F)F)c2)nc1Cc1cccc(OC(F)(F)F)c1
3. Cc1cnc(-c2cccc(C(F)(F)F)c2)nc1Cc1cccc(C#N)c1

1: 4; 2: 1; 3: 0

// Morningglory plant response rating value for Cc1cnc(-c2ccc(C(F)(F)F)cc2)nc1Cn1nc(C(F)(F)F)cc1C : 9

----------
Exercise: for every item that follows, state its recorded Plant response rating, Wild oats.
System: wild oat (Avena fatua)
Test: Test B pre-/postemergence
Type: in vivo
Settings: Rate 500 g/ha, Preemergence
Description: […] At the same time, these crop and weed species were also treated with postemergence applications of test chemicals formulated in the same manner. […] Treated plants and controls were maintained in a greenhouse for twelve to sixteen days, after which all species were compared to controls and visually evaluated. […]
One number for each entry.

Cc1cnc(-n2cnc(C(F)(F)F)n2)nc1C(=O)c1cccc(OC(F)(F)F)c1: 9
Cc1cnc(-n2ccc(C(F)(F)F)n2)nc1C(=O)c1cccc(OC(F)(F)F)c1: 5
Cc1cnc(-c2ccccc2)nc1Cn1ccc(C(F)(F)F)n1: 0
Cc1cnc(-c2ccc(C(F)(F)F)cc2)nc1Cn1nc(C(F)(F)F)cc1C: 9
Cc1cnc(-c2ccc(C(F)(F)F)cc2)nc1Cn1ccc(C#N)n1: 1

Value sought for every listed compound: Plant response rating, Wild oats.
1. Cc1cnc(-n2ccc(C(F)(F)F)n2)nc1C(=O)c1ccc(C(F)(F)F)cc1
2. Cc1cnc(-c2ccc(C(F)(F)F)cc2)nc1Cc1cccc(C(F)(F)F)c1
3. Cc1cnc(-n2cnc(C(F)(F)F)c2)nc1C(=O)c1cccc(OC(F)(F)F)c1
4. Cc1cnc(-n2ccc(C(F)(F)C(F)(F)F)n2)nc1C(=O)c1cccc(C(F)(F)F)c1
5. Cc1cnc(-n2ccc(C(F)(F)F)n2)nc1Cn1ccc(C(F)(F)F)n1

1: 0; 2: 10; 3: 8; 4: 8; 5: 10

----------
system: corn (Zea mays); assay: Test B pre-/postemergence; type: in vivo; conditions: Rate 125 g/ha, Postemergence
readout_name: Plant response rating, Corn
Numbers only.

Cc1cnc(-c2ccc(C(F)(F)F)cc2)nc1Cn1ccc(C(F)(F)F)n1 [compound 9]: 4
Cc1cnc(-c2ccc(F)c(Cl)c2)nc1Cc1cccc(C#N)c1 [Compound 40]: 1
CCc1cnc(-n2ccc(C(F)(F)F)n2)nc1Cc1cccc(OC(F)(F)F)c1 [Compound 47]: 3
COc1cnc(-c2ccc(C(F)(F)F)cc2)nc1Cc1cccc(C(F)(F)F)c1 [Compound 23]: 3
Cc1cnc(-c2ccc(C(F)(F)F)cc2)nc1Cn1cnc(C(F)(F)F)n1 [Compound 11]: 3
Cc1cnc(-c2ccc(Cl)c(Cl)c2)nc1Cc1cccc(C#N)c1 [Compound 38]: 1
Cc1cnc(-c2ccc(Cl)cc2)nc1Cc1cccc(C(F)(F)F)c1 [Compound 28]: 3
COC(c1cccc(C(F)(F)F)c1)c1nc(-c2ccc(C(F)(F)F)cc2)ncc1C (racemic) [Compound 20]: 3
Cc1cnc(-c2ccc(C(F)(F)F)cc2)nc1Cc1cccc(C#N)c1 [Compound 32]: 1
Cc1cnc(-n2cnc(C(F)(F)F)c2)nc1Cc1cccc(C(F)(F)F)c1 [Compound 44]: 3

Value sought for every listed compound: Plant response rating, Corn.
1. Cc1cnc(-c2ccc(C#N)cc2)nc1Cc1cccc(C#N)c1 [Compound 36]
2. CCc1cnc(-c2ccc(C(F)(F)F)cc2)nc1Cc1cccc(C(F)(F)F)c1 [Compound 22]
3. Cc1cnc(-c2ccc(C(F)(F)F)cc2)nc1Cn1ccc(C(F)(F)C(F)(F)F)n1 [Compound 14]
4. COC(=O)C(c1cccc(C(F)(F)F)c1)c1nc(-c2ccc(C(F)(F)F)cc2)ncc1C (racemic) [Compound 18]
5. Cc1cnc(-n2ccc(C(F)(F)F)n2)nc1Cc1cccc(OC(F)(F)F)c1 [Compound 42]

1. 1
2. 3
3. 2
4. 2
5. 3

Value sought for every listed compound: Plant response rating, Corn.
1. CCc1cnc(-n2cnc(C(F)(F)F)n2)nc1Cc1cccc(OC(F)(F)F)c1 [Compound 50]
2. Cc1cnc(-n2ccc(C(F)(F)F)n2)nc1Cc1cccc(C(F)(F)F)c1 [Example 2]

1. 2
2. 4

----------
Exercise: for every item that follows, state its recorded Corn plant response rating.
test system: corn (Zea mays); test: Test B pre-/postemergence; assay type: in vivo; settings: Rate 62 g/ha, Postemergence
Answers are plain numbers.

Cc1cnc(-n2ccc(C(F)(F)F)n2)nc1C(=O)c1cccc(OC(F)(F)F)c1: 1
Cc1cnc(-c2ccc(C(F)(F)F)cc2)nc1C(=O)c1cccc(OC(F)(F)F)c1: 2
CCc1cnc(-n2cnc(C(F)(F)F)c2)nc1C(=O)c1cccc(OC(F)(F)F)c1: 2
COc1cnc(-n2ccc(C(F)(F)F)n2)nc1C(=O)c1cccc(C(F)(F)F)c1: 2
O=C(c1cccc(C(F)(F)F)c1)c1ccnc(-c2ccc(F)cc2F)n1: 1

Value sought for every listed molecule: Corn plant response rating.
1. Cc1cnc(-n2cnc(C(F)(F)F)n2)nc1C(=O)c1cccc(C(F)(F)F)c1
2. Cc1cnc(-n2ccc(C(F)(F)C(F)(F)F)n2)nc1C(=O)c1cccc(C(F)(F)F)c1

1: 4; 2: 1

----------
tested on: bedstraw (Galium aparine); assay: Test B pre-/postemergence; assay type: in vivo; details: Preemergence, Rate 62 g/ha; scale of 0 to 10
readout_name: Plant response rating, Bedstraw
Numbers only.

# annotated cases, reported Plant response rating, Bedstraw shown
Cc1cnc(-n2ccc(C(F)(F)F)n2)nc1C(=O)c1cccc(C(F)(F)F)c1 [Compound 59]: 3
Cc1cnc(-n2ccc(C(F)(F)F)n2)nc1C(=O)c1ccc(C(F)(F)F)cc1 [Compound 65]: 0
Cc1cnc(-c2ccc(C(F)(F)F)cc2)nc1C(=O)c1cccc(OC(F)(F)F)c1 [Compound 75]: 3

// Plant response rating, Bedstraw value for Cc1cnc(-n2cnc(C(F)(F)F)n2)nc1C(=O)c1cccc(OC(F)(F)F)c1 [Compound 64] : 3
